Target: CYP2C19 (Homo sapiens)
Sequence (P33261 whole entry): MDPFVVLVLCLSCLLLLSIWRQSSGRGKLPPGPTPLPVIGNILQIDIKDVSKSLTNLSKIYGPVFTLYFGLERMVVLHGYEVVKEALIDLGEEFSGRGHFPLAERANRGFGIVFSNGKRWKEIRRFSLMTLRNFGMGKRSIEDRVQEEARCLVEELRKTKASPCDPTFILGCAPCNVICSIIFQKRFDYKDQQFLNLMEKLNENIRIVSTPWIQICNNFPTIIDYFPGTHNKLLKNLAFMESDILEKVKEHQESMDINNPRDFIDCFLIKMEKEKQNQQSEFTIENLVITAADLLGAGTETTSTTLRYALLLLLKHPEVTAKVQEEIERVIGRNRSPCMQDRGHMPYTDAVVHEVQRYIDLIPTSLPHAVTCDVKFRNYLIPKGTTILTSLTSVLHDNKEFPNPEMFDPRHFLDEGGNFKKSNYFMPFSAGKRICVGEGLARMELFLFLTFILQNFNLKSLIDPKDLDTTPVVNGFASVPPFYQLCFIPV
Assay: Inhibition of recombinant CYP2C19 (unknown origin) at 10 uM
Type: ADME
measured.property: inhibition at 10 µM (%)

I = CCOc1cc(NC(=O)NCc2cc(C)c(-c3cn(C)nc3C(F)(F)F)nn2)cc(Cl)n1
II = CCOc1cc(NC(=O)NCc2cc(C)c(-c3cn(C)nc3C(F)(F)F)cn2)cc(Cl)n1
-- ask // select label with min value of measured inhibition at 10 µM from [ I , II ] // respond with label for picked entry
-- reply I

----------
Experiment: Intrinsic clearance unbound in human liver microsomes at 1 uM […] by LC-MS/MS analysis
Type: ADME, Microsome
measured.property: CL free

Solved entries:
CCOc1cc(NC(=O)NCc2cc(C)c(-c3cn(C)nc3C(F)(F)F)nn2)cc(Cl)n1 | < 43.3 mL/min/kg
CCOc1nc(C)cc(NC(=O)NCc2cc(C)c(-c3cn(C)nc3C(F)(F)F)nn2)c1Cl | < 25 mL/min/kg
CCOc1nc(C#N)cc(NC(=O)NCc2cc(C)c(-c3cn(C)nc3C(F)(F)F)nn2)c1C | < 35 mL/min/kg
CCOc1nc(Cl)cc(NC(=O)NCc2cc(C)c(-c3cn(C)nc3C(F)(F)F)nn2)c1C | < 127 mL/min/kg

Now, please, on to the next compound.
-- ask Need CL free of `CCOc1cc(NC(=O)NCc2cc(C)c(-c3cn(C)nc3C(F)(F)F)nn2)cc(C#N)n1` , thanks.
-- reply < 28.3 mL/min/kg

----------
Biological target: Sphingosine 1-phosphate receptor 2 (Homo sapiens, UniProt O95136)
Sequence (O95136 whole entry): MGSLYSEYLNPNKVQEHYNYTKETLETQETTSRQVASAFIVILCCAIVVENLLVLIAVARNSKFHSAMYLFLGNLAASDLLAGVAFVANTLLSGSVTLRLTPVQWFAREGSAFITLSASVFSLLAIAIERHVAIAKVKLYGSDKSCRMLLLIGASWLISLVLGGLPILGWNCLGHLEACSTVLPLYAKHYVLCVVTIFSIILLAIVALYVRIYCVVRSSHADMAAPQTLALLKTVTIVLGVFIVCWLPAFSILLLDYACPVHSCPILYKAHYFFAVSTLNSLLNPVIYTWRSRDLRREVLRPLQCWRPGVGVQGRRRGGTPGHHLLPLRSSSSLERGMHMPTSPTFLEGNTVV
Assay: Antagonist activity at human S1P2 receptor expressed in CHO cells assessed as EC80 S1P-induced calcium flux measured for 3 mins by fluorescence assay
Type: functional, cell-based
pIC50: −log10 of the molar value.
measured.property: pIC50

Solved entries:
Cc1cc(CNC(=O)Nc2cc(OCCO)nc(C(F)(F)F)c2)nnc1-c1cn(C)nc1C(F)(F)F | 3.46
CCOc1cc(NC(=O)NCc2cc(C)c(-c3cn(C)nc3C)cn2)cc(Cl)n1 | 7.40
CCOC(=O)c1cc(C)cc(NNC(=O)Nc2cc(Cl)nc(Cl)c2)n1 | 6.12
Cc1cc(CNC(=O)c2cc3c(Cl)cc(Cl)cc3[nH]2)ncc1-c1cn(C)nc1C | 6.96

1 = CCOc1nc(C)cc(NC(=O)NCc2cc(C)c(-c3cn(C)nc3C(F)(F)F)nn2)c1C
2 = Cc1cc(CNC(=O)Nc2cc(Cl)nc(OCC(F)F)c2)nnc1-c1cn(C)nc1C(F)(F)F
-- ask Sorting by pIC50 in descending order, would 1 or 2 appear first? // respond with label for picked entry
-- reply 1

A = Cc1cc(NNC(=O)Nc2cc(Cl)nc(Cl)c2)ncc1-c1ccn(C)n1
B = CCOc1nc(C)cc(NC(=O)NCc2cc(C)c(-c3cn(C)nc3C(F)(F)F)nn2)c1Cl
C = Cc1cc(CNc2nc3cc(Cl)c(Cl)cc3[nH]2)ncc1-c1cn(C)nc1C
D = Cc1cc(NNC(=O)Nc2cc(Cl)nc(Cl)c2)nc(-c2ccc(F)cc2)c1
E = Cc1cc(CNC(=O)Nc2cc(Cl)nc(Cl)c2)ncc1-c1cn(C)nc1C
-- ask Sequence the entries by pIC50, beginning with the highest number. Provide the labels, sequenced as the question asks.
-- reply C, E, D, A, B

1 = CCOc1cc(NC(=O)NCc2cc(C)c(-c3cn(C)nc3C(F)(F)F)nn2)cc(C(F)(F)F)n1
2 = Cc1cc(CNC(=O)c2cc3c(Cl)nc(Cl)cc3[nH]2)ncc1-c1cn(C)nc1C
-- ask Sorting by pIC50 in descending order, would 1 or 2 appear first? // respond with label for picked entry
-- reply 2

I = CCOc1nc(Cl)cc(NC(=O)NCc2cc(C)c(-c3cn(C)nc3C(F)(F)F)nn2)c1C
II = CCOc1cc(NC(=O)NCc2cc(C)c(-c3cn(C)nc3C(F)(F)F)cn2)cc(Cl)n1
-- ask Sorting by pIC50 in descending order, would I or II appear first? // respond with label for picked entry
-- reply II

----------
Target: Sphingosine 1-phosphate receptor 2 (Homo sapiens, UniProt O95136)
Test: Antagonist activity at recombinant human S1P2 receptor expressed in CHO cells assessed as EC80 S1P-induced activation incubated for 4 hrs in presence of [35S]GTPgammaS by Topcount reader
Type: functional, cell-based
measured.property: IC50 (µM)

Solved entries:
CCOc1cc(NC(=O)NCc2cc(C)c(N3CC(C)OC(C)C3)cn2)cc(Cl)n1 (stereo not given) | 105
Cc1cc(CNC(=O)Nc2cc(OCCO)nc(C(F)(F)F)c2)nnc1-c1cn(C)nc1C(F)(F)F | 704

I = CCOc1cc(NC(=O)NCc2cc(C)c(-c3cn(C)nc3C(F)(F)F)nn2)cc(Cl)n1
II = CCOc1cc(NC(=O)NCc2cc(C)c(-c3cn(C)nc3C(F)(F)F)nn2)cc(C#N)n1
-- ask // select label with min value of measured IC50 from [ I , II ] // respond with label for picked entry
-- reply I
(I: 20 µM, II: 35 µM)

----------
Test: Half life in beagle dog at 1 mg/kg, iv measured up to 24 hrs by LC-MS/MS analysis
Assay type: ADME, organism-based, Canis lupus familiaris
Settings: in vivo
measured.property: half-life (h)

a = CCOc1cc(NC(=O)NCc2cc(C)c(-c3cn(C)nc3C(F)(F)F)nn2)cc(C(F)(F)F)n1
b = CCOc1cc(NC(=O)NCc2cc(C)c(-c3cn(C)nc3C(F)(F)F)nn2)cc(Cl)n1
c = CCOc1nc(C)cc(NC(=O)NCc2cc(C)c(-c3cn(C)nc3C(F)(F)F)nn2)c1C
-- ask Lab note: rank above entries, half-life ascending. Provide the labels, sequenced as the question asks.
-- reply c, b, a
(c: 1.6 h, b: 3.1 h, a: 7.6 h)

----------
Target: Sphingosine 1-phosphate receptor 2 (Homo sapiens)
Assay: Antagonist activity at human S1P2 receptor expressed in CHO cells assessed as EC80 S1P-induced calcium flux measured for 3 mins by fluorescence assay
Type: functional, cell-based
measured.property: IC50 (µM)

CCOc1cc(NC(=O)NCc2cc(C)c(Nc3cn(C)nc3C)cn2)cc(C(F)(F)F)n1 | 0.012
Cc1cc(NNC(=O)Nc2cc(Cl)nc(Cl)c2)nc(C(=O)NC2CC2)c1 | 4.5
CCOc1cc(NC(=O)NCc2cc(C)c(-c3cn(C)nc3C(F)(F)F)nn2)cc(C#N)n1 | 11

a = Cc1cc(NNC(=O)Nc2cc(Cl)nc(Cl)c2)ncc1N(C)C
b = CCOc1nc(C#N)cc(NC(=O)NCc2cc(C)c(-c3cn(C)nc3C(F)(F)F)nn2)c1C
-- ask Sorting by IC50 in descending order, would a or b appear first? // respond with label for picked entry
-- reply b
(b: 7.1 µM, a: 3.6 µM)

I = COCCOc1cc(NC(=O)NCc2cc(C)c(-c3cn(C)nc3C(F)(F)F)nn2)cc(Cl)n1
II = CCOc1cc(NC(=O)NCc2cc(C)c(-c3cn(C)nc3C(F)(F)F)nn2)cc(C)n1
-- ask Sorting by IC50 in descending order, would I or II appear first? // respond with label for picked entry
-- reply I
(I: 412 µM, II: 54 µM)

----------
Target: Sphingosine 1-phosphate receptor 2 (Homo sapiens)
Experiment: Antagonist activity at recombinant human S1P2 receptor in HFL1 cells assessed as inhibition of EC80 S1P-induced IL8 release incubated for 16 to 24 hrs in absence of HSA by ELISA
Assay type: functional, cell-based
measured.property: IC50 (nM)

CCOc1nc(C#N)cc(NC(=O)NCc2cc(C)c(-c3cn(C)nc3C(F)(F)F)nn2)c1C | 24
CCOc1cc(NC(=O)NCc2cc(C)c(-c3cn(C)nc3C(F)(F)F)nn2)cc(Cl)n1 | 20
Cc1cc(CNc2nc3cc(Cl)c(Cl)cc3[nH]2)ncc1-c1cn(C)nc1C | 0.43

P = Cc1cc(CNC(=O)c2cc3c(Cl)cc(Cl)cc3[nH]2)ncc1-c1cn(C)nc1C
Q = CCOc1nc(C)cc(NC(=O)NCc2cc(C)c(-c3cn(C)nc3C(F)(F)F)nn2)c1C
R = CCOc1cc(NC(=O)NCc2cc(C)c(Nc3cn(C)nc3C)cn2)cc(C(F)(F)F)n1
S = Cc1cc(CNC(=O)Nc2cc(Cl)cc(Cl)c2)ncc1-c1cn(C)nc1C
-- ask // ascending sort on recorded IC50 Provide the labels, sequenced as the question asks.
-- reply S, P, Q, R
(S: 0.3 nM, P: 0.61 nM, Q: 16 nM, R: 55 nM)

----------
Target: Sphingosine 1-phosphate receptor 2 (Homo sapiens)
Assay: Displacement of radio labeled-SIP from human recombinant S1P2 receptor expressed in CHO cell membranes […] by radioligand based competition binding assay
Design: species or system Membrane
measured.property: IC50 (nM)

Cc1cc(NNC(=O)Nc2cc(Cl)nc(Cl)c2)ncc1-c1cnn(C)c1 | 1200

a = Cc1cc(NNC(=O)Nc2cc(Cl)nc(Cl)c2)ncc1-c1cn(C)nc1C
b = CCOC(=O)c1cc(C)cc(NNC(=O)Nc2cc(Cl)nc(Cl)c2)n1
-- ask // select label with min value of measured IC50 from [ a , b ] // respond with label for picked entry
-- reply a
(a: 190 nM, b: 300 nM)
